Target: ligand binding domain of thyroid hormone receptor beta (Homo sapiens (Human))
Assay: Thyroid hormone receptor TR-FRET binding assay (TRβ LBD)
Settings: TRβ LBD 2 nM
pEC50: −log10 of the molar value.
Cut-off 6 on pEC50, inclusive. At or above means MET; below means NOT MET.

Solved cases (3 shown):
INSERT INTO assay_data (molecule, class_name) VALUES
  ('N#Cc1nn(-c2ccc(Oc3cc(C4CC4)c(=O)[nH]n3)c(Cl)c2)c(=O)[nH]c1=O', 'NOT MET'),
  ('CCc1nn(-c2cc(Cl)c(Oc3cc(C(C)C)c(=O)[nH]n3)c(Cl)c2)c(=O)[nH]c1=O', 'NOT MET'),
  ('N#Cc1nn(-c2cc(Cl)c(Oc3cc(CC4CCC(O)C4)c(=O)[nH]n3)c(Cl)c2)c(=O)[nH]c1=O (stereo not shown)', 'NOT MET');

# input Please check the record Cc1cc(-n2nc(C#N)c(=O)[nH]c2=O)c(F)c(C)c1Oc1cc(C(C)C)c(=O)[nH]n1 and state if its pEC50 is at or above 6.
# output NOT MET

# input Moving on to the next molecule: N#Cc1nn(-c2cc(Cl)c(Oc3cc(C4CC4)c(=O)[nH]n3)c(Br)c2)c(=O)[nH]c1=O
# output MET

# input And for CC(c1ccccc1)c1cc(Oc2c(Cl)cc(-n3nc(C#N)c(=O)[nH]c3=O)cc2Cl)n[nH]c1=O (single isomer, unassigned) [Compound 89] ?
# output MET

----------
Target: ligand binding domain of thyroid hormone receptor alpha (Homo sapiens (Human))
Experiment: Thyroid hormone receptor TR-FRET binding assay (TRα LBD)
Conditions: TRα LBD 4 nM
Items are presented alongside their recorded pEC50.
Remember the convention: pEC50 equals -log10 of concentration in molar.

# input Hello, I am looking for reported pEC50 with ligand binding domain of thyroid hormone receptor alpha (Homo sapiens (Human)) for Cc1nn(-c2cc(Cl)c(Oc3cc([C@@H](C)c4ccccc4)c(=O)[nH]n3)c(Cl)c2)c(=O)[nH]c1=O (single isomer, unassigned) [Compound 71] . Could you help?
# output 4.84

----------
Biological target: ligand binding domain of thyroid hormone receptor beta (Homo sapiens (Human), UniProt P10828)
Sequence (P10828 217-461): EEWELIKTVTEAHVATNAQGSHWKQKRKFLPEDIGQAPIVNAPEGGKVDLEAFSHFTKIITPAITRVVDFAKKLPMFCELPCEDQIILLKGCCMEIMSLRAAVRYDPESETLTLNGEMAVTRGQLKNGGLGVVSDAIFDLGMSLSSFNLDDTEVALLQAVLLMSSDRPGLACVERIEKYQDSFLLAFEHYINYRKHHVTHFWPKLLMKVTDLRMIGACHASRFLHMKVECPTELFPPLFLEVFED
Assay: Thyroid hormone receptor TR-FRET binding assay (TRβ LBD)
Conditions: TRβ LBD 2 nM
A collection of compounds and their measured pEC50
Friendly reminder that pEC50 comes from taking -log10 of the concentration in mol/L.

Below, each entry is followed by its recorded pEC50 result.
INSERT INTO assay_data (compound, numeric_result) VALUES
  ('Cc1nn(-c2cc(Cl)c(Oc3cc(C4CCCCC4)c(=O)[nH]n3)c(Cl)c2)c(=O)[nH]c1=O', 5.36),
  ('CCC(CC)c1cc(Oc2c(Cl)cc(-n3nc(C)c(=O)[nH]c3=O)cc2Cl)n[nH]c1=O', 6.39),
  ('N#Cc1nn(-c2cc(Br)c(Oc3cc(C4CCCC4)c(=O)[nH]n3)c(Br)c2)c(=O)[nH]c1=O', 6.77);

# input State the recorded pEC50 for this entry: N#Cc1nn(-c2cc(Cl)c(Oc3cc(Cc4ccc5[nH]ncc5c4)c(=O)[nH]n3)c(Cl)c2)c(=O)[nH]c1=O
# output 7.00

# input Please answer likewise for N#Cc1nn(-c2cc(Cl)c(Oc3cc(C4CCCCC4)c(=O)[nH]n3)c(Cl)c2)c(=O)[nH]c1=O
# output 6.09

# input What about this compound? Cc1nn(-c2cc(Br)c(Oc3cc(C4CC4)c(=O)[nH]n3)c(Br)c2)c(=O)[nH]c1=O
# output 7.22

# input Also check CC(c1ccccc1)c1cc(Oc2c(Cl)cc(-n3nc(C#N)c(=O)[nH]c3=O)cc2Cl)n[nH]c1=O (single isomer, unassigned) [Compound 88]
# output 5.49

# input Moving on to CC(C)c1cc(Oc2c(Cl)cc(CCP(=O)(O)O)cc2Cl)n[nH]c1=O
# output 4.37

# input Item: CC(c1cc(Oc2c(Cl)cc(-n3nc(C#N)c(=O)[nH]c3=O)cc2C(F)(F)F)n[nH]c1=O)C1CCCCC1 (racemic)
# output 6.59

# input # repeat for Cc1nn(-c2cc(Cl)c(Oc3cc(C4CCCC4)c(=O)[nH]n3)c(Cl)c2)c(=O)[nH]c1=O
# output 6.43

# input Entry Cc1nn(-c2cc(Cl)c(Oc3cc(C(C)C4CCCCC4)c(=O)[nH]n3)c(Cl)c2)c(=O)[nH]c1=O (single isomer, unassigned) [Compound 75] please
# output 6.80

# input Here is the next compound: N#Cc1nn(-c2cc(Cl)c(Oc3cc(C4CCC4)c(=O)[nH]n3)c(C(F)(F)F)c2)c(=O)[nH]c1=O
# output 6.74

# input Would you kindly repeat that for N#Cc1nn(-c2cc(Cl)c(Oc3cc(C4CCN(Cc5ccccc5)CC4)c(=O)[nH]n3)c(Cl)c2)c(=O)[nH]c1=O ?
# output 4.05

# input One more compound: N#Cc1nn(-c2cc(Cl)c(Oc3ccc4[nH]cc(C(N)=O)c4c3)c(Cl)c2)c(=O)[nH]c1=O
# output 5.92

# input Same question, N#Cc1nn(-c2cc(Cl)c(Oc3cc(Cc4ccccc4O)c(=O)[nH]n3)c(Cl)c2)c(=O)[nH]c1=O this time
# output 5.79

----------
Assay: Human hepatocyte clearance study
Type: in vitro ADME
Conditions: human, hepatocytes
EXPERIMENTAL READOUT: half-life at 1 µM (h)
Note: unit h is implicit; provide only the numeric part.

INSERT INTO measurements (compound, numeric_result) VALUES
  ('Cc1nn(-c2cc(Cl)c(Oc3cc(Cc4ccc(C#N)cc4)c(=O)[nH]n3)c(Cl)c2)c(=O)[nH]c1=O', 14.7),
  ('N#Cc1nn(-c2cc(Cl)c(Oc3cc(C4CC4)c(=O)[nH]n3)c(C(F)(F)F)c2)c(=O)[nH]c1=O', 13),
  ('CC(C)c1cc(Oc2c(Cl)cc(-n3nc(C#N)c(=O)[nH]c3=O)cc2Cl)n[nH]c1=O [MGL-3196, reference compound]', 2.75);

# input // returns reported half-life at 1 µM for input Cc1nn(-c2cc(Cl)c(Oc3cc(C4CCC4)c(=O)[nH]n3)c(Cl)c2)c(=O)[nH]c1=O
# output 6.18

----------
Molecular target: ligand binding domain of thyroid hormone receptor alpha (Homo sapiens (Human), UniProt P10827)
Sequence (P10827 other isoform, or with tags, fused parts or gaps del 1-162, other chains not shown): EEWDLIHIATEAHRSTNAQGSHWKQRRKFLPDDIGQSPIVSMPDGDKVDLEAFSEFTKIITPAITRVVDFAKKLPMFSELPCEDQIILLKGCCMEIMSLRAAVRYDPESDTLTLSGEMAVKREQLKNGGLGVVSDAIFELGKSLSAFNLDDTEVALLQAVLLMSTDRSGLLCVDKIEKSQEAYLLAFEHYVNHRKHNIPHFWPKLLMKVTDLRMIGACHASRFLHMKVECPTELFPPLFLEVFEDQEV
Experiment: Thyroid hormone receptor TR-FRET binding assay (TRα LBD)
Conditions: TRα LBD 4 nM
pEC50: −log10 of the molar value.
Decide by pEC50: equal to or exceeding 5 means 1, less means -1.

INSERT INTO assay_data (compound, class_name) VALUES
  ('N#Cc1nn(-c2cc(Cl)c(Oc3cc(CC4CCC(O)C4)c(=O)[nH]n3)c(Cl)c2)c(=O)[nH]c1=O (stereo not shown)', -1),
  ('Cc1nn(-c2cc(Br)c(Oc3cc(C4CCCC4)c(=O)[nH]n3)c(Br)c2)c(=O)[nH]c1=O', 1),
  ('N#Cc1nn(-c2cc(Cl)c(Oc3cc(C4CCN(Cc5ccccc5)CC4)c(=O)[nH]n3)c(Cl)c2)c(=O)[nH]c1=O', -1);

# input Entry N#Cc1nn(-c2cc(Cl)c(Oc3cc(C4CCC4)c(=O)[nH]n3)c(C(F)(F)F)c2)c(=O)[nH]c1=O : is its pEC50 no less than 5?
# output 1

# input What about CC(C)c1cc(Oc2c(Cl)cc(-n3nc(C4CC4)c(=O)[nH]c3=O)cc2Cl)n[nH]c1=O ?
# output -1

# input What do we get for Cc1nn(-c2cc(Cl)c(Oc3cc(C(C)C)c(=O)[nH]n3)c(Cl)c2)c(=O)[nH]c1=O ?
# output 1

# input Next up: N#Cc1nn(-c2cc(Cl)c(Sc3cc(Cc4ccccc4)c(=O)[nH]n3)c(Cl)c2)c(=O)[nH]c1=O
# output -1

# input Same question, CC(C)c1cc(Oc2c(Cl)cc(-n3nc(C#N)c(=O)[nH]c3=O)cc2C(F)(F)F)n[nH]c1=O this time
# output 1

# input Also Cc1nn(-c2cc(Cl)c(Oc3cc(Cc4ccc(Cl)cc4)c(=O)[nH]n3)c(Cl)c2)c(=O)[nH]c1=O , if possible.
# output 1

# input Consider next the compound Cc1nn(-c2cc(Cl)c(Oc3cc(C(C)C4CCCCC4)c(=O)[nH]n3)c(Cl)c2)c(=O)[nH]c1=O (single isomer, unassigned) [Compound 75] in the same way.
# output 1

# input # iterate: N#Cc1nn(-c2cc(Cl)c(Oc3cc(C4CC4)c(=O)[nH]n3)c(Cl)c2)c(=O)[nH]c1=O
# output 1

# input Same lookup for Cc1nn(-c2cc(Cl)c(Oc3cc(C(C)C4CCCCC4)c(=O)[nH]n3)c(Cl)c2)c(=O)[nH]c1=O (single isomer, unassigned) [Compound 76] , please.
# output -1

# input CC(C)c1cc(Oc2c(Cl)cc(-n3nc(C(C)C)c(=O)[nH]c3=O)cc2Cl)n[nH]c1=O ?
# output -1

# input And what about the compound N#Cc1nn(-c2cc(Cl)c(Oc3cc(-c4ccccc4)c(=O)[nH]n3)c(Cl)c2)c(=O)[nH]c1=O ?
# output -1

# input Record: N#Cc1nn(-c2cc(Cl)c(Oc3cc(C4CCCC4)c(=O)[nH]n3)c(Cl)c2)c(=O)[nH]c1=O
# output -1

# input Another compound to check: N#Cc1nn(-c2cc(Cl)c(Oc3cc(C4CCCC4)c(=O)[nH]n3)c(C(F)(F)F)c2)c(=O)[nH]c1=O
# output -1
